B1: Twister Ribozyme (parent)
chain: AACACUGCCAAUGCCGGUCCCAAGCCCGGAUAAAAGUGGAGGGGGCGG

# Variants of: B1
# test method notes: self-cleavage, relative activity (ratio to wild type); higher = more cleavage; co-transcriptional
Where self-cleavage equals or exceeds 0.1, the correct label is satisfied; where it does not, the label is not satisfied.

The following variants have reported results that may help.
{"variant key": "U12A C27G", "qualitative label": "satisfied"}
{"variant key": "C14G G43C", "qualitative label": "not satisfied"}
{"variant key": "C26U G45A", "qualitative label": "satisfied"}
{"variant key": "G7U G38C", "qualitative label": "not satisfied"}
{"variant key": "A32G G36C", "qualitative label": "satisfied"}
{"variant key": "A10G U18G", "qualitative label": "not satisfied"}
{"variant key": "C5A G45A", "qualitative label": "satisfied"}
{"variant key": "A4C A11U", "qualitative label": "satisfied"}

Q: Does C20G U37A have a reported self-cleavage of at least 0.1?
A: not satisfied

Q: Follow-up entry: A10G A40G
A: satisfied

Q: Follow-up entry: U6A A22U
A: satisfied

Q: Follow-up entry: C15U U31G
A: satisfied

Q: Follow-up entry: C15A A34G
A: satisfied

Q: Follow-up entry: G42C G47A
A: satisfied

Q: Follow-up entry: U18C G47A
A: satisfied

Q: Follow-up entry: A1U A30G
A: not satisfied

Q: Follow-up entry: C5U G41A
A: satisfied

Q: Follow-up entry: G7A C26G
A: not satisfied

Q: Follow-up entry: A34G G44U
A: satisfied

Q: Follow-up entry: A4G C27G
A: not satisfied

Q: Follow-up entry: C3G A34C
A: not satisfied

Ref: the RNAGym collection of RNA variant scans (doi:10.7554/elife.80360)
